# Tested on: 898857-211-R-J1-PDC complex spheroids, growth % test/control;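 further: spheroids exposed to compound for seven days before readout; 100% = DMSO vehicle control wells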
# ASSAY REMARKS: Anticancer human tumor 898857-211-R-J1-PDC patient-derived melanoma cell line growth inhibition [RAS]
# MEASUREMENT CONDITIONS: second compound 0.000949 µM; first compound 0.01 µM; stronger effect = lower value
TEST READOUT: viability, T/C (%)
# number only, unit % dropped from output

INSERT INTO measurements (molecule, test_readout, recorded_number) VALUES
  ('C=CC(=O)Nc1cc(Nc2nccc(-c3cn(C)c4ccccc34)n2)c(OC)cc1N(C)CCN(C)C + CCn1c(-c2cccnc2C(C)OC)c2c3cc(ccc31)N1CCOC(CC(NC(=O)C(C(C)C)N(C)C(=O)C3(F)CCN(C(=O)C#CC(C)(C)N(C)C)CC3)C(=O)N3CCCC(N3)C(=O)OCC(C)(C)C2)C1', 'viability, T/C', 103),
  ('Nc1ccn(C2OC(CO)C(O)C2(F)F)c(=O)n1 (centres undefined) + CCn1c(-c2cccnc2C(C)OC)c2c3cc(ccc31)N1CCOC(CC(NC(=O)C(C(C)C)N(C)C(=O)C3(F)CCN(C(=O)C#CC(C)(C)N(C)C)CC3)C(=O)N3CCCC(N3)C(=O)OCC(C)(C)C2)C1', 'viability, T/C', 27.9),
  ('CCN1CCN(Cc2ccc(Nc3ncc(F)c(-c4cc(F)c5nc(C)n(C(C)C)c5c4)n3)nc2)CC1 + CCn1c(-c2cc(N3CCN(C)CC3)cnc2C(C)OC)c2c3cc(ccc31)-c1csc(n1)CC(NC(=O)C1CC1C)C(=O)N1CCCC(N1)C(=O)OCC(C)(C)C2', 'viability, T/C', 94.2);

Please give the documented viability, T/C of CC(C)n1nc(-c2ccc3oc(N)nc3c2)c2c(N)ncnc21 + CCn1c(-c2cc(N3CCN(C)CC3)cnc2C(C)OC)c2c3cc(ccc31)-c1csc(n1)CC(NC(=O)C1CC1C)C(=O)N1CCCC(N1)C(=O)OCC(C)(C)C2
63.3
